Exercise: state measured IC50 for each of the compounds provided.
# Test system: human hepatic stellate cells LX-2
# PROTOCOL_DESCRIPTION: Anti-fibrosis activity test: inhibition of proliferation of human hepatic stellate cells LX-2 (CCK-8)
# Assay type: cell-based
# TEST_PARAMETERS: Homo sapiens, LX-2, 48 h, LX-2 cells, 48 h, CCK-8

Record excerpt, results attached:
{"COMPOUND": "O=C1c2c(nc3ccccc3c2OCCCN2CCNCC2)-c2cccn21 [Compound 669b]", "IC50": "0.05 to 5 mM"}
{"COMPOUND": "Cc1ccc(C)c2c(=O)c3c([nH]c12)-c1cccn1C3=O [Compound 772a]", "IC50": "0.05 to 5 mM"}
{"COMPOUND": "Cc1cc2nc3c(c(O)c2cc1C)-c1cccn1C3=O [Compound 781b]", "IC50": "0.05 to 5 mM"}
{"COMPOUND": "Cc1cc(C)c2c(=O)c3c([nH]c2c1)-c1cccn1C3=O [Compound 768a]", "IC50": "0.05 to 5 mM"}

For each of the items listed, what is its IC50?
1. O=C1c2nc3ccccc3c(OCCN3CCCCC3)c2-c2cccn21 [Compound 784b]
2. Cc1ccc2n1C(=O)c1[nH]c3ccccc3c(=O)c1-2 [Compound 799a]

Reply |
1. 0.05 to 5 mM
2. 0.05 to 5 mM

For each of the items listed, what is its IC50?
1. O=C1c2c(c(=O)c3ccccc3n2Cc2ccc(-c3ccccc3)cc2)-c2cccn21 [Compound 796a]
2. Cc1cccc2[nH]c3c(c(=O)c12)C(=O)n1cccc1-3 [Compound 678a]

Reply |
0.05 to 5 mM
0.05 to 5 mM

For each of the items listed, what is its IC50?
1. O=C1c2c(n(CCCN3CCNCC3)c3ccccc3c2=O)-c2cccn21 [Compound 669a]
2. O=C1c2c(c(=O)c3ccccc3n2CCN2CCOCC2)-c2cccn21 [Compound 785a]

Reply |
1. 0.05 to 5 mM
2. 0.05 to 5 mM

For each of the items listed, what is its IC50?
1. O=C1c2nc3ccccc3c(OCc3ccc(-c4ccccc4)cc3)c2-c2cccn21 [Compound 796b]
2. CCCOCCn1c2c(c(=O)c3ccccc31)-c1cccn1C2=O [Compound 790a]

Reply |
0.05 to 5 mM
0.05 to 5 mM

----------
# Test system: human hepatic stellate cells LX-2
# PROTOCOL_DESCRIPTION: Anti-fibrosis activity test: inhibition of proliferation of human hepatic stellate cells LX-2 (CCK-8)
# Format: cell-based
# TEST_PARAMETERS: Homo sapiens, 48 h, human hepatic stellate cells LX-2, CCK-8, 48 hours
MEASUREMENT_KIND: IC50

Record excerpt, results attached:
{"COMPOUND": "O=C1c2c(n(Cc3cccc(C(F)(F)F)c3)c3ccccc3c2=O)-c2cccn21 [Compound 598a]", "TARGET_OR_SYSTEM": "human hepatic stellate cells LX-2", "MEASUREMENT_KIND": "IC50", "RESULT": "0.05 to 5 mM"}
{"COMPOUND": "O=C1c2c(nc3ccc(F)cc3c2OCc2ccc(Cl)cc2F)-c2cccn21 [Compound 621b]", "TARGET_OR_SYSTEM": "human hepatic stellate cells LX-2", "MEASUREMENT_KIND": "IC50", "RESULT": "0.05 to 5 mM"}
{"COMPOUND": "O=C1c2c(nc3cc(C(F)(F)F)ccc3c2OCc2cccc(Cl)c2)-c2cccn21 [Compound 545b]", "TARGET_OR_SYSTEM": "human hepatic stellate cells LX-2", "MEASUREMENT_KIND": "IC50", "RESULT": "0.05 to 5 mM"}

Now for a further compound.
Ask | Look up IC50 for this compound: O=C1c2c(nc3ccccc3c2OCc2ccc(Br)cc2F)-c2cccn21 [Compound 606b]
Reply | 0.05 to 5 mM

----------
# Tested on: human hepatic stellate cells LX-2
# PROTOCOL_DESCRIPTION: Anti-fibrosis activity test: inhibition of proliferation of human hepatic stellate cells LX-2 (CCK-8)
# Assay type: cell-based
# TEST_PARAMETERS: Homo sapiens, 48 h, human hepatic stellate cells LX-2, CCK-8, 48 hours
Exercise: state measured IC50 for each of the compounds provided.

{"COMPOUND": "COc1cccc(Cn2c3c(c(=O)c4ccccc42)C(=O)n2cccc2-3)c1 [Compound 610a]", "RESULT": "0.05 to 5 mM"}
{"COMPOUND": "O=C(COc1c2c(nc3ccccc13)-c1cccn1C2=O)c1ccc(-c2ccccc2)cc1 [Compound 50b]", "RESULT": "5 to 20 mM"}
{"COMPOUND": "O=C1c2c(nc3c(F)cccc3c2O)-c2cccn21 [Compound 444b]", "RESULT": "0.05 to 5 mM"}

For each of the items listed, what is its IC50?
1. O=C1c2c(n(Cc3ccc(F)cc3)c3cc(N4CCNCC4)c(F)cc3c2=O)-c2cccn21 [Compound 634a]
2. O=C1c2c(nc3cccc(Cl)c3c2OCc2cccc(Cl)c2)-c2cccn21 [Compound 478b]
3. O=C1c2c(n(Cc3ccc(Cl)cc3)c3c(C(F)(F)F)cccc3c2=O)-c2cccn21 [Compound 450a]
4. O=C1c2c(n(Cc3ccccc3F)c3c(Cl)cccc3c2=O)-c2cccn21 [Compound 460a]
5. N#Cc1ccc2c(OCc3cccc(F)c3)c3c(nc2c1)-c1cccn1C3=O [Compound 515b]

Reply |
["0.05 to 5 mM", "0.05 to 5 mM", "0.05 to 5 mM", "0.05 to 5 mM", "0.05 to 5 mM"]

----------
# Test system: human hepatic stellate cells LX-2
# PROTOCOL_DESCRIPTION: Anti-fibrosis activity test: inhibition of proliferation of human hepatic stellate cells LX-2 (CCK-8)
# Assay type: cell-based
# TEST_PARAMETERS: Homo sapiens, 48 h, human hepatic stellate cells LX-2, CCK-8, 48 hours
MEASUREMENT_KIND: IC50

For each of the items listed, what is its IC50?
1. O=C(Cn1c2c(c(=O)c3ccccc31)C(=O)n1cccc1-2)c1ccc(-c2ccccc2)cc1 [Compound 50a]
2. O=C(O)COc1c2c(nc3ccccc13)-c1cccn1C2=O [Compound 100b]
3. N#Cc1ccc2c(O)c3c(nc2c1)-c1cccn1C3=O [Compound 512b]

Reply |
["5 to 20 mM", "0.05 to 5 mM", "< 0.05 mM"]

----------
Exercise: state measured IC50 for each of the compounds provided.
# Test system: human hepatic stellate cells LX-2
# PROTOCOL_DESCRIPTION: Anti-fibrosis activity test: inhibition of proliferation of human hepatic stellate cells LX-2 (CCK-8)
# Format: cell-based
# TEST_PARAMETERS: Homo sapiens, 48 h, human hepatic stellate cells LX-2, CCK-8, 48 hours
# Description: BHK-21 cells in exponential growth phase were selected. After the fusion growth reached 85-95%, normal passage method was utilized to digest and collect the cells, followed by cell counting and adjusting the cell density to 2×10^4 cells/mL. […] 10 μL of CCK-8 solution ( 1/10 of the volume of the culture solution) was added to each well 48 hours after the administration, and incubated for 2 hours. The absorbance (A) of each well was determined by a microplate reader at 450 nm wavelength. […]

{"COMPOUND": "O=C1c2c(n(C3CC3)c3ccc(F)cc3c2=O)-c2cccn21 [Compound 144a]", "MEASUREMENT_KIND": "IC50", "RESULT": "< 0.05 mM"}
{"COMPOUND": "O=C1c2c(nc3ccccc3c2OCc2ccc(Cl)cc2)-c2cccn21 [Compound 589b]", "MEASUREMENT_KIND": "IC50", "RESULT": "< 0.05 mM"}
{"COMPOUND": "N#Cc1cc2c(=O)c3c(n(Cc4ccc(-c5ccccc5)cc4)c2cc1N1CCNCC1)-c1cccn1C3=O [Compound 643a]", "MEASUREMENT_KIND": "IC50", "RESULT": "0.05 to 5 mM"}

Now for a further compound.
Ask | Look up IC50 for this compound: N#Cc1c(N2CCNCC2)ccc2c(=O)c3c(n(Cc4ccc(F)cc4)c12)-c1cccn1C3=O [Compound 482a]
Reply | 0.05 to 5 mM

----------
Exercise: state measured IC50 for each of the compounds provided.
# Tested on: BHK-21 cells
# PROTOCOL_DESCRIPTION: Anti-fibrosis activity test: inhibition of BHK-21 cell proliferation (CCK-8)
# Assay type: cell-based
# TEST_PARAMETERS: Mesocricetus auratus, BHK-21, 48 h, CCK-8, 48 hours after administration

Record excerpt, results attached:
{"COMPOUND": "O=C1c2c(n(-c3ccc(F)cc3)c3ccccc3c2=O)-c2cccn21 [Compound 18a]", "TARGET_OR_SYSTEM": "BHK-21 cells", "RESULT": "< 0.05 mM"}
{"COMPOUND": "O=C1c2c(nc3cccc(F)c3c2OCc2cccc(F)c2)-c2cccn21 [Compound 475b]", "TARGET_OR_SYSTEM": "BHK-21 cells", "RESULT": "0.05 to 5 mM"}

For each of the items listed, what is its IC50?
1. O=C1c2c(nc3c(Cl)cccc3c2OCc2cccc(Cl)c2)-c2cccn21 [Compound 459b]
2. CC(C)n1c2c(c(=O)c3ccccc31)C(=O)n1cccc1-2
3. Cc1ccc(COc2c3c(nc4ccccc24)-c2cccn2C3=O)cc1 [Compound 604b]
4. O=C1c2c(n(Cc3cc(F)c(F)c(F)c3F)c3ccccc3c2=O)-c2cccn21 [Compound 587a]
5. O=C1c2c(nc3ccccc3c2OCc2ccccc2F)-c2cccn21 [Compound 599b]
6. O=C1c2c(nc3cc(F)ccc3c2OCc2ccc(Cl)cc2)-c2cccn21 [Compound 496b]
7. O=C1c2c(nc3c(Cl)cccc3c2OCc2ccccc2Cl)-c2cccn21 [Compound 461b]

Reply |
1: 0.05 to 5 mM; 2: 5 to 20 mM; 3: 0.05 to 5 mM; 4: 0.05 to 5 mM; 5: 0.05 to 5 mM; 6: 0.05 to 5 mM; 7: 0.05 to 5 mM
